- SYSTEM: T1, cIL2Rg-Fc (lot#P210115SV5) (cynomolgus, UniProt A0A2K5VGJ6 23-262)
- T1 construct: Named only by lot number; also called cynomolgus IL2Rg-Fc; not shown: Fc of the fusion protein
- T1 sequence: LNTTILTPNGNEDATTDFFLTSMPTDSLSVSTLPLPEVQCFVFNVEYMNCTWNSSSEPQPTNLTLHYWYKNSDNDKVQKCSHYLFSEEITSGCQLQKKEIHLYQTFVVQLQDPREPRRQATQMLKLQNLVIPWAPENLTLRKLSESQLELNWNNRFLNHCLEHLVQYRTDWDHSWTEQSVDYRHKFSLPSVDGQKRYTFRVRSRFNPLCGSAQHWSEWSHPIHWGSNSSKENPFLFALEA
- EXPERIMENT SUMMARY: SPR (Biacore T200), Fc-fused ligand captured on chip, dual VHH as analyte, 1:1 Langmuir fit
MEASURED QUANTITY: kon (M⁻¹ s⁻¹)

{"columns": ["BINDER", "MEASURED QUANTITY", "READOUT UNITS", "OBSERVED VALUE"],
 "data": [
  ["DR442(DR236-DR232) (bispecific antibody, Anti-hIL10Ra/hIL2Rg dual VHH with ASH6 handle; also called F7) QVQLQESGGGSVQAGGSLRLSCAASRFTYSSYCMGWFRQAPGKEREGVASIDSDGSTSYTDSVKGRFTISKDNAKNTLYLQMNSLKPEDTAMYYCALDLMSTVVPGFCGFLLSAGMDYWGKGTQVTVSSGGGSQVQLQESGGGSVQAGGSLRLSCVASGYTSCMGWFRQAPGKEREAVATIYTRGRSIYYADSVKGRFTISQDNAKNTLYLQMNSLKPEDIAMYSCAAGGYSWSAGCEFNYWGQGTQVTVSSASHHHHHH", "kon", "M⁻¹ s⁻¹", 79000],
  ["DR471(DR241-DR231) (bispecific antibody, Anti-hIL10Ra/hIL2Rg dual VHH with ASH6 handle; also called G3) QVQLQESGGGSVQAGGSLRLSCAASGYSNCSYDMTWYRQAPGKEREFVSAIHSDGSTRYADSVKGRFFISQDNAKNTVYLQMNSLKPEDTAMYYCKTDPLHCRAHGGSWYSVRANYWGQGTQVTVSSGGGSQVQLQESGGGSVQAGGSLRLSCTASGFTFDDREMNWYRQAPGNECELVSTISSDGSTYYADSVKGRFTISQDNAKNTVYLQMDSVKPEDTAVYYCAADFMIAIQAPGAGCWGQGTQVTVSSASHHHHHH", "kon", "M⁻¹ s⁻¹", 360000],
  ["DR468(DR240-DR234) (bispecific antibody, Anti-hIL10Ra/hIL2Rg dual VHH with ASH6 handle; also called G8) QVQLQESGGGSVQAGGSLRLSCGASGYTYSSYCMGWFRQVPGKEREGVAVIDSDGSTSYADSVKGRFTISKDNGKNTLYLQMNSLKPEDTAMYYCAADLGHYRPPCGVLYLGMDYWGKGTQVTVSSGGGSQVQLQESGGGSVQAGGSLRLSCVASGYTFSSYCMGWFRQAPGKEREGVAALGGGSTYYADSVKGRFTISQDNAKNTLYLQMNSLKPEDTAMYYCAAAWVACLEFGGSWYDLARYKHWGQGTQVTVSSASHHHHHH", "kon", "M⁻¹ s⁻¹", 240000],
  ["DR474(DR241-DR234) (bispecific antibody, Anti-hIL10Ra/hIL2Rg dual VHH with ASH6 handle; also called H9) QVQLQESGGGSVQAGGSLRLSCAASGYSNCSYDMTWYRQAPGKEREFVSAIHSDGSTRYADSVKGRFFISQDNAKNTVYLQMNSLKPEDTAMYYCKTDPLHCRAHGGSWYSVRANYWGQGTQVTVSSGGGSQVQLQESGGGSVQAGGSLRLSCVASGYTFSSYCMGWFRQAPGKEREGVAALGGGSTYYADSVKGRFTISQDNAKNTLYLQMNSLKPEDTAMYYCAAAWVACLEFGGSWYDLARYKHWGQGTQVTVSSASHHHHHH", "kon", "M⁻¹ s⁻¹", 330000]
]}

Measured values drawn from patent US20250163162A1 for this set.
